The reported measurements were obtained from ChEMBL document CHEMBL2157934.

Test: Oral bioavailability in cynomolgus monkey
Assay type: ADME, organism-based, Macaca fascicularis
Settings: in vivo
VALUE_KIND: bioavailability (%)
Please state the figure in %; there is no need to write the unit.

## Input Please give the measured bioavailability for this compound: O=C(Nc1ccccc1OCCO)N[C@@H]1CCN(Cc2ccc3cc(F)ccc3c2)C1
## Output 22

* * *

Target: C-C chemokine receptor type 3 (Homo sapiens, UniProt P51677)
Sequence (P51677 whole entry): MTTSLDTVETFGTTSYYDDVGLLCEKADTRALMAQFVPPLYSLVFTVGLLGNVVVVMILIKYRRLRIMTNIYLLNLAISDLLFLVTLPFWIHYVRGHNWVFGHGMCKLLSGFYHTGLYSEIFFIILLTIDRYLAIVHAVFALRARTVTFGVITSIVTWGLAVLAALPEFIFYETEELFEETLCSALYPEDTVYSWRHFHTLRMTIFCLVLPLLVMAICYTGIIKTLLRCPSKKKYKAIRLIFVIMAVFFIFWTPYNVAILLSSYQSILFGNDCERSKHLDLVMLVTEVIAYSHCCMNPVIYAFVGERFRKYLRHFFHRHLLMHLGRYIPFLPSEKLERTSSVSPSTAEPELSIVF
Experiment: Antagonist activity at CCR3 receptor
Type: functional
VALUE_KIND: log10 of IC50 (log10 of the value in nM)
The common logarithm of IC50 in nM is what is listed.

The following compounds have reported results that may help.
| SMILES_RECORD | TESTED_SYSTEM | log10 of IC50 |
| --- | --- | --- |
| O=C(Nc1ccccc1OCCCO)N[C@@H]1CCN(Cc2ccc3cc(F)ccc3c2)C1 | C-C chemokine receptor type 3 (Homo sapiens, UniProt P51677) | 1.70 |
| O=C(NC1CCCCC1)N[C@@H]1CCN(Cc2ccc3cc(F)ccc3c2)C1 | C-C chemokine receptor type 3 (Homo sapiens, UniProt P51677) | 1.61 |
| O=C(NC1CCN(S(=O)(=O)c2ccccc2O)CC1)N[C@@H]1CCN(Cc2ccc3cc(F)ccc3c2)C1 | C-C chemokine receptor type 3 (Homo sapiens, UniProt P51677) | 0.38 |
| CN(C)C(=O)COc1ccccc1NC(=O)N[C@@H]1CCN(Cc2ccc3cc(F)ccc3c2)C1 | C-C chemokine receptor type 3 (Homo sapiens, UniProt P51677) | 2.28 |

Next, consider the following compound.
## Input Please give the measured log10 of IC50 for this compound: O=C(NC1CCN(S(=O)(=O)c2ccccc2O)CC1)N1CCCN(Cc2ccc3cc(F)ccc3c2)CC1
## Output 1.40
